# Tested on: Escherichia coli TOP10;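 also: peptides expressed intracellularly from a pBAD plasmid library in pooled LB shake-flask culture, induced with 0.3% L-arabinose, DNA abundance read by NGS, three biological replicates, DESeq2 with apeglm shrinkage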
# ASSAY_EXPLANATION: shrunken log2 fold change of peptide-encoding DNA abundance (4.5 h post-induction vs induction); higher = less antimicrobial activity (less host growth inhibition)
# PARTICULARS: time post-induction: 4.5 h; library: site-saturation at positions 5, 18, 19, 20
Classify by shrunken log2 fold change. Ranges: class A: < -0.2; class B: ≥ -0.2 and < 0.02; class C: ≥ 0.02

{"columns": ["ORDERED_RESIDUES", "TGT", "CLASSIFICATION"],
 "data": [
  ["RRIRLRPPRLPRPRPRPGFKPRP", "Escherichia coli TOP10", "class C"],
  ["RRIRDRPPRLPRPRPRPIMFPRP", "Escherichia coli TOP10", "class C"],
  ["RRIRQRPPRLPRPRPRPQFWPRP", "Escherichia coli TOP10", "class C"],
  ["RRIRCRPPRLPRPRPRPGKFPRP", "Escherichia coli TOP10", "class B"],
  ["RRIRFRPPRLPRPRPRPTLPPRP", "Escherichia coli TOP10", "class C"],
  ["RRIRCRPPRLPRPRPRPIVAPRP", "Escherichia coli TOP10", "class C"],
  ["RRIRPRPPRLPRPRPRPTYGPRP", "Escherichia coli TOP10", "class B"],
  ["RRIRPRPPRLPRPRPRPCWPPRP", "Escherichia coli TOP10", "class C"],
  ["RRIRCRPPRLPRPRPRPYSLPRP", "Escherichia coli TOP10", "class A"],
  ["RRIRMRPPRLPRPRPRPGAFPRP", "Escherichia coli TOP10", "class C"],
  ["RRIRARPPRLPRPRPRPVIHPRP", "Escherichia coli TOP10", "class A"],
  ["RRIRDRPPRLPRPRPRPMIVPRP", "Escherichia coli TOP10", "class B"],
  ["RRIRCRPPRLPRPRPRPNHRPRP", "Escherichia coli TOP10", "class A"],
  ["RRIRVRPPRLPRPRPRPGIAPRP", "Escherichia coli TOP10", "class B"],
  ["RRIRKRPPRLPRPRPRPWEIPRP", "Escherichia coli TOP10", "class B"],
  ["RRIRTRPPRLPRPRPRPDELPRP", "Escherichia coli TOP10", "class B"],
  ["RRIRCRPPRLPRPRPRPNTPPRP", "Escherichia coli TOP10", "class A"],
  ["RRIRLRPPRLPRPRPRPLLRPRP", "Escherichia coli TOP10", "class C"],
  ["RRIRARPPRLPRPRPRPQFRPRP", "Escherichia coli TOP10", "class B"],
  ["RRIRSRPPRLPRPRPRPEKRPRP", "Escherichia coli TOP10", "class B"],
  ["RRIRYRPPRLPRPRPRPPNLPRP", "Escherichia coli TOP10", "class A"],
  ["RRIRWRPPRLPRPRPRPSSQPRP", "Escherichia coli TOP10", "class A"],
  ["RRIRYRPPRLPRPRPRPGTCPRP", "Escherichia coli TOP10", "class A"],
  ["RRIRERPPRLPRPRPRPVPEPRP", "Escherichia coli TOP10", "class B"],
  ["RRIRDRPPRLPRPRPRPHGGPRP", "Escherichia coli TOP10", "class C"],
  ["RRIRWRPPRLPRPRPRPWPTPRP", "Escherichia coli TOP10", "class C"],
  ["RRIRKRPPRLPRPRPRPKESPRP", "Escherichia coli TOP10", "class B"],
  ["RRIRCRPPRLPRPRPRPMDAPRP", "Escherichia coli TOP10", "class B"],
  ["RRIRQRPPRLPRPRPRPKWRPRP", "Escherichia coli TOP10", "class C"],
  ["RRIRVRPPRLPRPRPRPPRPPRP", "Escherichia coli TOP10", "class C"],
  ["RRIRNRPPRLPRPRPRPFPEPRP", "Escherichia coli TOP10", "class A"],
  ["RRIRQRPPRLPRPRPRPWKMPRP", "Escherichia coli TOP10", "class B"],
  ["RRIRRRPPRLPRPRPRPPSAPRP", "Escherichia coli TOP10", "class C"],
  ["RRIRERPPRLPRPRPRPHPDPRP", "Escherichia coli TOP10", "class B"],
  ["RRIRARPPRLPRPRPRPTFHPRP", "Escherichia coli TOP10", "class C"],
  ["RRIRPRPPRLPRPRPRPPNSPRP", "Escherichia coli TOP10", "class B"],
  ["RRIRARPPRLPRPRPRPFYYPRP", "Escherichia coli TOP10", "class A"],
  ["RRIRYRPPRLPRPRPRPKILPRP", "Escherichia coli TOP10", "class A"],
  ["RRIRYRPPRLPRPRPRPQQTPRP", "Escherichia coli TOP10", "class B"],
  ["RRIRTRPPRLPRPRPRPQNPPRP", "Escherichia coli TOP10", "class B"],
  ["RRIRFRPPRLPRPRPRPLNIPRP", "Escherichia coli TOP10", "class A"],
  ["RRIRIRPPRLPRPRPRPIITPRP", "Escherichia coli TOP10", "class A"],
  ["RRIRLRPPRLPRPRPRPNHPPRP", "Escherichia coli TOP10", "class A"],
  ["RRIRMRPPRLPRPRPRPRQNPRP", "Escherichia coli TOP10", "class C"],
  ["RRIRWRPPRLPRPRPRPYFVPRP", "Escherichia coli TOP10", "class A"],
  ["RRIRLRPPRLPRPRPRPLNAPRP", "Escherichia coli TOP10", "class B"],
  ["RRIRMRPPRLPRPRPRPVARPRP", "Escherichia coli TOP10", "class C"],
  ["RRIRCRPPRLPRPRPRPKILPRP", "Escherichia coli TOP10", "class B"]
]}

Attribution: the supplement of paper PMC9112550
